Molecular target: human Glucose-dependent Insulinotropic Polypeptide Receptor (hGIPR) (Homo sapiens)
Assay: Functional in vitro GIPR antagonist potency assay (cAMP HTRF, CHO-K1 cells stably expressing hGIPR, hGIP stimulation at about EC80)
Format: cell-based
Conditions: geometric mean, hGIP at estimated EC80, examples marked ^2: overall geometric mean of multiple forms (including salts) tested
observable: IC50 (nM)

// recorded IC50 for CC(C)c1ccc(NC(=O)N2CCC[C@@H]2C(=O)Nc2cnc(-c3ccc(C(=O)O)cc3)c(F)c2)cc1 : 6.3

[1] CC(C)c1ccc(NC(=O)N2CCC[C@@H]2C(=O)Nc2ccc(-c3ccc(C(=O)O)c(C(F)(F)F)c3)cc2)cc1
[2] Cc1nc(C(=O)O)ccc1-c1ccc(NC(=O)[C@H]2CCCN2C(=O)Nc2ccc(C(C)C)c(F)c2)cc1
[3] O=C(O)c1ccc2cc(NC(=O)[C@H]3CCCN3C(=O)Nc3ccc(C(F)(F)F)cc3)ccc2c1
[in] Put the items in sequence by IC50, from largest down. Provide the ranking by listing each label in its place in the requested order.
[out] 3, 1, 2
(3: 77 nM, 1: 38 nM, 2: 4.8 nM)

---

Biological target: human Glucose-dependent Insulinotropic Polypeptide Receptor (hGIPR) (Homo sapiens)
Sequence (P48546 22-466): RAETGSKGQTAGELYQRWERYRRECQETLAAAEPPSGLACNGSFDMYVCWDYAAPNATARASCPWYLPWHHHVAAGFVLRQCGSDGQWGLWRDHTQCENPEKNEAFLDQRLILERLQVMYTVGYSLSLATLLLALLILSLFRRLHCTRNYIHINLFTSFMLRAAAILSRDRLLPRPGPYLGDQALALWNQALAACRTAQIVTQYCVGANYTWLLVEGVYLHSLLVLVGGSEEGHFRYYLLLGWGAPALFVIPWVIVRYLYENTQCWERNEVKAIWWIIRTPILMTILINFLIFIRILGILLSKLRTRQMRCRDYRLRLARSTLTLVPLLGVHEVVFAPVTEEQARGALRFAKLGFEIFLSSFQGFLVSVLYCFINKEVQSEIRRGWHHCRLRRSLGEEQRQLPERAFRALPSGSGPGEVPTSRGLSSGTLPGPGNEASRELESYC
Assay: Functional in vitro GIPR antagonist potency assay (cAMP HTRF, CHO-K1 cells stably expressing hGIPR, hGIP stimulation at about EC80)
Details: geometric mean, hGIP at estimated EC80, examples marked ^2: overall geometric mean of multiple forms (including salts) tested
Counter-ions that a name gives are not always drawn.
observable: IC50 (nM)

Recorded results for 10 compounds are shown here.
Record for Cc1cc(NC(=O)N2CCC[C@@H]2C(=O)Nc2ccc(-c3cccc(C(=O)O)c3)cn2)ccc1C(C)C under target or system human Glucose-dependent Insulinotropic Polypeptide Receptor (hGIPR) (Homo sapiens): IC50 reported as 9.3

Record for CC(C)c1ccc(NC(=O)N2CC[C@@H](C)[C@@H]2C(=O)Nc2ccc(-c3ccc(C(=O)O)cc3)cc2)cc1 (single isomer, unassigned) under target or system human Glucose-dependent Insulinotropic Polypeptide Receptor (hGIPR) (Homo sapiens): IC50 reported as 4.6

Record for CC(C)c1ccc(NC(=O)N2CCC[C@@H]2C(=O)Nc2ccc(-c3ccc(F)c(C(=O)O)c3F)cc2)cc1 under target or system human Glucose-dependent Insulinotropic Polypeptide Receptor (hGIPR) (Homo sapiens): IC50 reported as 430

Record for COc1nc(C(=O)O)ccc1-c1ccc(NC(=O)[C@H]2CCCN2C(=O)Nc2ccc(C(C)C)cc2)cc1 under target or system human Glucose-dependent Insulinotropic Polypeptide Receptor (hGIPR) (Homo sapiens): IC50 reported as 26

Record for Cc1cc(NC(=O)N2CCC[C@@H]2C(=O)Nc2ccc3cc(C(=O)O)ccc3c2)ccc1C(C)C under target or system human Glucose-dependent Insulinotropic Polypeptide Receptor (hGIPR) (Homo sapiens): IC50 reported as 44

Record for O=C(O)c1ccc(-c2ccc(NC(=O)[C@H]3CCCN3C(=O)Nc3ccc(Cl)c(C(F)(F)F)c3)cc2)cc1 under target or system human Glucose-dependent Insulinotropic Polypeptide Receptor (hGIPR) (Homo sapiens): IC50 reported as 3.7

Record for CC(C)c1ccc(NC(=O)N2C[C@H]3C[C@H]3[C@@H]2C(=O)Nc2ccc(-c3ccc(C(=O)O)cc3)cc2)cc1 under target or system human Glucose-dependent Insulinotropic Polypeptide Receptor (hGIPR) (Homo sapiens): IC50 reported as 2.9

Record for O=C(O)[C@@H]1CCc2nc(NC(=O)[C@H]3CCCN3C(=O)Nc3ccc(C(F)(F)F)cc3)ccc2C1 (single isomer, unassigned) [Example 218] under target or system human Glucose-dependent Insulinotropic Polypeptide Receptor (hGIPR) (Homo sapiens): IC50 reported as 33

Record for CC(C)c1ccc(NC(=O)N2CCC[C@@H]2C(=O)Nc2ccc(-c3cc(F)c(O)c(F)c3)cc2)cc1 under target or system human Glucose-dependent Insulinotropic Polypeptide Receptor (hGIPR) (Homo sapiens): IC50 reported as 18

Record for CC(C)c1ccc(NC(=O)N2CCC[C@@H]2C(=O)Nc2c(F)cc(-c3ccc(C(=O)O)cc3)cc2F)cc1 under target or system human Glucose-dependent Insulinotropic Polypeptide Receptor (hGIPR) (Homo sapiens): IC50 reported as 8.1

[I] O=C(O)c1ccc(-c2ccc(NC(=O)[C@H]3CCCN3C(=O)NCc3cc(Cl)cc(Cl)c3)cc2)cc1
[II] Cc1cc(NC(=O)N2CCC[C@@H]2C(=O)Nc2ccc(-c3ccc(C(=O)O)cc3)cc2)cnc1C(C)C [Example 145, trifluoroacetate salt]
[in] Consider I and II . Which of these has its IC50 at a higher number? Record your answer as the label of the chosen record.
[out] II
(II: 70 nM, I: 21 nM)

[A] CC(C)c1ccc(NC(=O)N2CCC[C@@H]2C(=O)Nc2ccc(-c3ccc(C(=O)O)nc3)cc2)cc1
[B] O=C(O)c1ccc(-c2ccc(NC(=O)[C@H]3CCCN3C(=O)NCc3ccc(C(F)(F)F)c(F)c3)cc2)cc1
[in] Consider A and B . Which of these has its IC50 at a higher number? Record your answer as the label of the chosen record.
[out] A
(A: 16 nM, B: 6.6 nM)

---

Molecular target: human Glucose-dependent Insulinotropic Polypeptide Receptor (hGIPR) (Homo sapiens, UniProt P48546)
Test: Functional in vitro GIPR antagonist potency assay (cAMP HTRF, CHO-K1 cells stably expressing hGIPR, hGIP stimulation at about EC80)
Format: cell-based
Details: geometric mean, hGIP at estimated EC80, examples marked ^2: overall geometric mean of multiple forms (including salts) tested
pIC50: −log10 of the molar value.
observable: pIC50

// recorded pIC50 for CC(C)c1ccc(NC(=O)N2CCC[C@@H]2C(=O)Nc2ccc(-c3ccc(C(=O)O)cc3)cn2)cc1 [Example 5] : 8.04

[a] O=C(O)c1ccc(-c2ccc(NC(=O)[C@H]3CCCN3C(=O)Nc3ccc(C4(C(F)(F)F)CC4)cc3)cc2)cn1 [Example 197]
[b] CC(C)c1ccc(NC(=O)N2CCC[C@@H]2C(=O)Nc2ccc(-c3ccc(C(=O)O)cc3C(F)(F)F)cc2)cc1 [Example 49]
[c] COc1ccc(-c2ccc(NC(=O)[C@H]3CCCN3C(=O)Nc3ccc(C(C)C)cc3)cc2)cc1C(=O)O [Example 93]
[d] Cc1cc(-c2ccc(NC(=O)[C@H]3CCCN3C(=O)Nc3ccc(C(C)C)cc3)cc2)c(F)cc1C(=O)O [Example 86]
[e] CC(C)c1ccc(NC(=O)N2CCC[C@@H]2C(=O)Nc2ccc(-c3ccc(C(=O)O)cc3)cn2)cc1F [Example 207]
[in] Put the items in sequence by pIC50, from largest down. Provide the ranking by listing each label in its place in the requested order.
[out] e, d, b, a, c

[a] O=C(O)c1ccc(-c2ccc(NC(=O)[C@H]3CCCN3C(=O)Nc3ccc(C4(C(F)(F)F)CC4)cc3)cc2)cc1 [Example 42]
[b] Cc1cc(C(=O)O)cc(Cl)c1-c1ccc(NC(=O)[C@H]2CCCN2C(=O)Nc2ccc(C(C)C)cc2)cc1 [Example 90]
[c] CC(C)c1ccc(NC(=O)N2CCC[C@@H]2C(=O)Nc2ccc(-c3ccnc(C(=O)O)c3)cc2)cc1 [Example 14]
[in] Put the items in sequence by pIC50, from largest down. Provide the ranking by listing each label in its place in the requested order.
[out] a, b, c

[I] O=C(O)c1ccc(-c2ccc(NC(=O)[C@H]3CCCN3C(=O)Nc3ccc(C(F)(F)F)cc3)cc2)cn1 [Example 196]
[II] Cc1cc(-c2ccc(NC(=O)[C@H]3CCCN3C(=O)Nc3ccc(C(C)C)cc3)cc2)cc(C)c1C(=O)O [Example 53]
[III] CC(C)c1ccc(NC(=O)N2CCC[C@@H]2C(=O)Nc2cnc(-c3ccc(C(=O)O)cc3)cn2)cc1 [Example 121]
[IV] Cc1cc(NC(=O)N2CCC[C@@H]2C(=O)Nc2ccc(-c3ccc(C(=O)O)cc3)cc2)ccc1C(C)C [Example 39]
[in] Could you please order the items by pIC50, going from the lowest number to the highest? Provide the ranking by listing each label in its place in the requested order.
[out] I, III, II, IV
(I: 7.31, III: 7.57, II: 7.82, IV: 8.43)

[I] Cc1nc(C(=O)O)ccc1-c1ccc(NC(=O)[C@H]2CCCN2C(=O)Nc2ccc(C(F)(F)F)cc2)cc1 [Example 169]
[II] CCc1ccc(NC(=O)N2CCC[C@@H]2C(=O)Nc2ccc(-c3ccc(C(=O)O)cc3)cc2)cc1 [Example 118]
[in] Of I and II , which carries the smaller reported pIC50 figure? Record your answer as the label of the chosen record.
[out] I
